- Test system: K-562 leukemia
- measurement protocol: NCI-60 one-dose screen, 48 h (100 = growth as untreated, 0 = no growth, -100 = all killed)
- test conditions: 10 µM unless noted
The panel holds about 83,000 compounds, 20% with a hit somewhere; the sample as a whole holds those more often.
Listed here: items and their measured growth.
Please reply with the bare figure in % and do not write the unit itself.

Please review the following examples before continuing.
>>> assay_value("CC1CN(C(C)C)C(=S)N(c2ccccc2)C1=O (stereo unspecified)")
95.9
>>> assay_value("Cc1cc(N/N=C/c2nc(-c3ccc(Cl)cc3)oc2C)c2cc(Cl)ccc2n1")
-15.8
>>> assay_value("COc1cc(C2CC(=O)Nc3c2c(C)nn3-c2nc3ccccc3[nH]2)cc(OC)c1OC (stereo unspecified)")
99.7

Lookup result for O=C1C[C@H](Sc2nc(-c3ccc(F)cc3)cc(C(F)(F)F)n2)[C@H]2CO[C@@H]1O2 ; measured growth: 53.3

Lookup result for O=C1/C(=C/c2ccccc2)CN(CCC(=O)N2C/C(=C\c3ccccc3)C(=O)/C(=C/c3ccccc3)C2)C/C1=C\c1ccccc1 ; measured growth: 11.6
